Source: patent US10196401B2

- study target: NMDAR2B (Homo sapiens, UniProt Q13224)
- Sequence (Q13224 27-1484, species assumed, other chains not shown): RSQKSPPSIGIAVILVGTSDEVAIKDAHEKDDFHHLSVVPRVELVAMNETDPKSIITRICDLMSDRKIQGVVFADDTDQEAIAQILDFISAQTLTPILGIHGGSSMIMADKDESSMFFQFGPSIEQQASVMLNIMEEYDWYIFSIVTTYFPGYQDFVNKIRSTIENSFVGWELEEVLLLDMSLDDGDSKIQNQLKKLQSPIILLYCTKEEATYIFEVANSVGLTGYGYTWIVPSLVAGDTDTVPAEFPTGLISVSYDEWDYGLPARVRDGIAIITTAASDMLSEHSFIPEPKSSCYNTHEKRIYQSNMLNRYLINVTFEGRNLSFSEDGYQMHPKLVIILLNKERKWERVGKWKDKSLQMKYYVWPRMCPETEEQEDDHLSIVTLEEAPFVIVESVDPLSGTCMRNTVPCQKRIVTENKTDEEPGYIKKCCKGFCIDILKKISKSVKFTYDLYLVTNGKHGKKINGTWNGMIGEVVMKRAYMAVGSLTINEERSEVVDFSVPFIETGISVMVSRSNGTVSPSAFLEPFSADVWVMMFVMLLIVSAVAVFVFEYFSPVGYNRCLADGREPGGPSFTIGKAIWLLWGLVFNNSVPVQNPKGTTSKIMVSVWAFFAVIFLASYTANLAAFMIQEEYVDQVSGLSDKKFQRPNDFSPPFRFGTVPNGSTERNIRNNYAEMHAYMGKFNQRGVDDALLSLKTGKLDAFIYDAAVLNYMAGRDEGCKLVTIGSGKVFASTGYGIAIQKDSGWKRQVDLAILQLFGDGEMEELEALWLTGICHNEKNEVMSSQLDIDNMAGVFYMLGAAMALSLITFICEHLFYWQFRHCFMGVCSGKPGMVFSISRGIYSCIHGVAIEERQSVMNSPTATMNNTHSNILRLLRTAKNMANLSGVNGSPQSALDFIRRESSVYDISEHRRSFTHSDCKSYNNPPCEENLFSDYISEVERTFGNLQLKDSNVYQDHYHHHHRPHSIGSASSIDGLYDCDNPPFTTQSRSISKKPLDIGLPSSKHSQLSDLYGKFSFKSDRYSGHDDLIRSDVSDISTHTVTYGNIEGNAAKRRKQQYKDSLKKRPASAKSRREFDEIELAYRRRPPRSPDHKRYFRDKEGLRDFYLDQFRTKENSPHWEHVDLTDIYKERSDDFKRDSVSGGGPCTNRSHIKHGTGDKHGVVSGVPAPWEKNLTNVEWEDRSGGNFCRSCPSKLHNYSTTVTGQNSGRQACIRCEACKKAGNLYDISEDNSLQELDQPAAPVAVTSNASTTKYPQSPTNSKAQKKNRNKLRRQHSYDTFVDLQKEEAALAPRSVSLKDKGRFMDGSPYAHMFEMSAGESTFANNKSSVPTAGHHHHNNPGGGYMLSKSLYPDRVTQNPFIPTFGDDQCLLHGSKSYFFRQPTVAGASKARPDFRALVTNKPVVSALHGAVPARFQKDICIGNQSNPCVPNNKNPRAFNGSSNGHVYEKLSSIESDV
- method: Potentiation of [3H]MK-801 binding, NMDAR2B
- Design: species or system rat
- applied conditions: NMDAR2B binding profile; relative to 1 mM glycine
observed property: % 1 mM Glycine (%)
Kindly provide the numeric value in % only, without the unit symbol.

See these solved cases before continuing.
>>> observed_value("C[C@@H](O)[C@@H](C(N)=O)N1C[C@@]2(CCCN2C(=O)OC(C)(C)C)C1=O")
59.55
>>> observed_value("CC(C)CN1CCC[C@@]12CN([C@H](C(N)=O)[C@@H](C)O)C2=O")
49.02
>>> observed_value("CC(C)C(=O)N1CCC[C@@]12CN([C@H](C(N)=O)[C@@H](C)O)C2=O")
70.49

Challenge: Supply measured % 1 mM Glycine of `CC(C)C(=O)N1CCC[C@]12CN([C@H](C(N)=O)[C@@H](C)O)C2=O` in your reply.
Response given: 70.74

Challenge: Supply measured % 1 mM Glycine of `CC(C)CN1CCC[C@]12CN([C@H](C(N)=O)[C@@H](C)O)C2=O` in your reply.
Response given: 68.22

Challenge: Supply measured % 1 mM Glycine of `C[C@@H](O)[C@@H](C(N)=O)N1C[C@]2(CCCN2C(=O)OC(C)(C)C)C1=O` in your reply.
Response given: 53.09
